- Experimental System: Tyrosine-protein kinase Fgr (Homo sapiens)
- Sequence (P09769 whole entry): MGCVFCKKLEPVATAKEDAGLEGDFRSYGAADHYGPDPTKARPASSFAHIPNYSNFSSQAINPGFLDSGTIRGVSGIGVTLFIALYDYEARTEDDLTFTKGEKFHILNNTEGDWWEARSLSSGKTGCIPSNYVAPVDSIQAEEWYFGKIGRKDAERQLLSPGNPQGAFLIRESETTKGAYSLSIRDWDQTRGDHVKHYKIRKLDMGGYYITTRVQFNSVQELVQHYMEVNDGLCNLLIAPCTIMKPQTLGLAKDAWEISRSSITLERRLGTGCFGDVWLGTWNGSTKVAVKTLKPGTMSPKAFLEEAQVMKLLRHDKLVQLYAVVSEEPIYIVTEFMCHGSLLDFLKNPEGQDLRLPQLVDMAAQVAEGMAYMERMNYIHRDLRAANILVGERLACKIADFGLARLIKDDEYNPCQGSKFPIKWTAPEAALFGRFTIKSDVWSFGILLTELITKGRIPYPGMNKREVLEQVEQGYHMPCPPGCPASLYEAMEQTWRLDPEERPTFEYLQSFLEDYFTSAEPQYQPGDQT
Measured Endpoint: IC50
Numeric answer plus unit only.

Q. Tyrosine-protein kinase Fgr (Homo sapiens) / IC50 / "COc1ccc2c(Oc3ccc(NC(=O)c4c(C)n(CC(C)(C)O)n(-c5ccccc5)c4=O)nc3)ccnc2c1" : value?
A. 328 nM

###

- Procedure Details: Oral bioavailability in Sprague-Dawley rat at 10 mg/kg
- Assay type: ADME, organism-based
- Condition Label: in vivo
Measured Endpoint: bioavailability (%)
Please respond with the number in % and leave the unit unwritten.

Q. What bioavailability value was documented for this compound, "COc1ccc2c(Oc3ccc(NC(=O)c4c(C)n(CC(C)(C)O)n(-c5ccccc5)c4=O)nc3)ccnc2c1" ?
A. 100

###

Sequence of the target: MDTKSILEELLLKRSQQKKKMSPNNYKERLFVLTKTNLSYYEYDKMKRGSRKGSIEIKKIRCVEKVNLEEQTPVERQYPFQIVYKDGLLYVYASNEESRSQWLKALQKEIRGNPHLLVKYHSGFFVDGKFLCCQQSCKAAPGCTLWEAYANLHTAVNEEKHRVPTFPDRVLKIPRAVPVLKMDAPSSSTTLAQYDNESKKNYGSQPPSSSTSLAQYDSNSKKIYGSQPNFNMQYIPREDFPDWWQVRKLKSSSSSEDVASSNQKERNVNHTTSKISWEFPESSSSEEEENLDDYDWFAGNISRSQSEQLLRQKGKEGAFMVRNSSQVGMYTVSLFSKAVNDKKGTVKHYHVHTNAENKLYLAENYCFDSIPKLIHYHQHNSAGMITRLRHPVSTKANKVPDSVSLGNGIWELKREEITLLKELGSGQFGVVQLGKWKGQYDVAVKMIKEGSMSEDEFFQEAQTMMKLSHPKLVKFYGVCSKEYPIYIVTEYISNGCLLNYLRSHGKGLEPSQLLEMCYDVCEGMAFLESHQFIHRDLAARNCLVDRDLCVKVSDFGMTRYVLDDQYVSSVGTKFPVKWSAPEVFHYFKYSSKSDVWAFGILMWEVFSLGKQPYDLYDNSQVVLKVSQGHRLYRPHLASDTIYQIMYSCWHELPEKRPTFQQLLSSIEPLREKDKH
Measured Endpoint: IC50 (nM)
Return type: number; implicit unit nM.

Q. I have this molecule here, "COc1ccc2c(Oc3ccc(NC(=O)c4c(C)n(CC(C)(C)O)n(-c5ccccc5)c4=O)nc3)ccnc2c1" , and I need its recorded IC50.
A. 363

###

- Experimental System: Tyrosine-protein kinase CSK (Homo sapiens, UniProt P41240)
- Sequence (P41240 whole entry): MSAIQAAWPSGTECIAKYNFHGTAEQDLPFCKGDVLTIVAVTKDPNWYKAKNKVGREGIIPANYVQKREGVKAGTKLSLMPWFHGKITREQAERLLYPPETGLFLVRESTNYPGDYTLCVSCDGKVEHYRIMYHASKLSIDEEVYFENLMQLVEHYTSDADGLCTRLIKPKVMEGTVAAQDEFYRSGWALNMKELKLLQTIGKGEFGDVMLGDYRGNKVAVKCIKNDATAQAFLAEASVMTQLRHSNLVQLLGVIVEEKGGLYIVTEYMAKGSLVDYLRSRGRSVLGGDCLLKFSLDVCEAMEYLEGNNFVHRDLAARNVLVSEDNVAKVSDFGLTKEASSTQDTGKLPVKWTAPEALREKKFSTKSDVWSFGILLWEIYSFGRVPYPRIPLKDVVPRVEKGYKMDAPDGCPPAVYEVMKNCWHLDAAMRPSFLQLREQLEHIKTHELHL
Measured Endpoint: IC50 (nM)
Numbers only; they are read as nM.

Q. Give IC50 (Tyrosine-protein kinase CSK (Homo sapiens, UniProt P41240)) of the following compound: "COc1ccc2c(Oc3ccc(NC(=O)c4c(C)n(CC(C)(C)O)n(-c5ccccc5)c4=O)nc3)ccnc2c1"
A. 165

###

- Experimental System: Hepatocyte growth factor receptor (Homo sapiens, UniProt P08581, H1094R)
- Sequence (P08581 25-1390 H1094R limits assumed): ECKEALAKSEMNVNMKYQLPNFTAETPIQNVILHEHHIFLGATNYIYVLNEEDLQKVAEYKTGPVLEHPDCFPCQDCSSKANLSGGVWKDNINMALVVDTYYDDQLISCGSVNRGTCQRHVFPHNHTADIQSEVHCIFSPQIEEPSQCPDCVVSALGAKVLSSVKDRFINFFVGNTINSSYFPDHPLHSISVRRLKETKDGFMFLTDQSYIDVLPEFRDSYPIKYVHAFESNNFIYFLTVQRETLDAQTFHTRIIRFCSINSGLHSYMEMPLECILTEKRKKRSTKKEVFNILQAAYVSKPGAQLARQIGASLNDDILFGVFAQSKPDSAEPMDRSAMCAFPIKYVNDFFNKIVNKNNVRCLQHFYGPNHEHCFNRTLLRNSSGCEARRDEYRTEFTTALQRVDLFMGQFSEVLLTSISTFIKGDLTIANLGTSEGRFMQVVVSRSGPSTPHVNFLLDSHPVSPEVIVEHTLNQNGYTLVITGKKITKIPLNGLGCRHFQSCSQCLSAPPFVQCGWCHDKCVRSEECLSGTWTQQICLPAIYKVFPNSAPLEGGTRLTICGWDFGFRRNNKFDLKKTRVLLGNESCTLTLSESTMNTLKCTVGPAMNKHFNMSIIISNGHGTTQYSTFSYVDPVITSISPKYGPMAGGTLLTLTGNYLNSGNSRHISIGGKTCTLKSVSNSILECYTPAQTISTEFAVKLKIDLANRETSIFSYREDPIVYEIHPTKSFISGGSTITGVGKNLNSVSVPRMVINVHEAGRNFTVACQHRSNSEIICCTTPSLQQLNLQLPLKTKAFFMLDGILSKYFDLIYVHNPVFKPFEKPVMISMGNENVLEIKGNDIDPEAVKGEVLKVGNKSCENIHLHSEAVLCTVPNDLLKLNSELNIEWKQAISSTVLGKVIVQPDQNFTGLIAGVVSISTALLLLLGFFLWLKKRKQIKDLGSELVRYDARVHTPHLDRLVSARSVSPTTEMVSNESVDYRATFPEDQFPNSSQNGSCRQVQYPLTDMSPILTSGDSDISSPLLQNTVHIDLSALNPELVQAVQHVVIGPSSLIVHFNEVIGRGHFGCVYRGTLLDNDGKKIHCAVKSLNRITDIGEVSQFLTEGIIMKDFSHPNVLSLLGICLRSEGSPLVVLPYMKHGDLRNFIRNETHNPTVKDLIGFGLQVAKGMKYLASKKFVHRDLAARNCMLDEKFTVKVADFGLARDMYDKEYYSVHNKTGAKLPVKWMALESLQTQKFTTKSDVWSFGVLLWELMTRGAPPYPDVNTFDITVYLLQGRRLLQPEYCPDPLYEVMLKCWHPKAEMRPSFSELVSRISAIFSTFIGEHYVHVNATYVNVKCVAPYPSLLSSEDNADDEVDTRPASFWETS
- Procedure Details: Inhibition c-Met H1094R mutant by HTRF assay
Measured Endpoint: Ki (nM)
The figure you give is taken to be in nM; do not add the unit.

Q. Tell me the measured Ki of "COc1ccc2c(Oc3ccc(NC(=O)c4c(C)n(CC(C)(C)O)n(-c5ccccc5)c4=O)nc3)ccnc2c1" , please.
A. 0.5
